Entry source: patent US11891348B2

[
  {
    "record smiles": "Nc1nccc(NC(=O)NC2CCCCCC2)n1",
    "melting point": "139 to 141 °C"
  },
  {
    "record smiles": "O=C(Nc1cc(C(F)(F)F)cc(C(F)(F)F)c1)NC1CCCCCC1",
    "melting point": "169 to 170 °C"
  },
  {
    "record smiles": "Nc1ccc(S(=O)(=O)NC(=O)NC2CCCCCC2)cc1",
    "melting point": "235 to 236 °C"
  }
]
